# credit: ChEMBL document CHEMBL3588845

Test system: Trypanosoma brucei
Experiment: Antiparasite activity against Trypanosoma brucei 427 assessed as growth inhibition at 5 uM incubated for 48 hrs by PrestoBlue based fluorescence assay
Assay type: functional
Settings: Trypanosoma brucei, 427, 48 h; read-out: GI
Hi there, I'd appreciate the recorded inhibition of growth at 5 µM for every entry that follows.
Please state the figure in %; there is no need to write the unit.

Recorded inhibition of growth at 5 µM (compound `N#Cc1cnc2ccc(-c3ccc(S(=O)(=O)N4CCOCC4)cc3)cc2c1Nc1ccc(OCc2ccccc2)c(Cl)c1` ): 33

For reference, reported inhibition of growth at 5 µM for `Fc1cccc(COc2ccc(Nc3nccc4cc(-c5cccc(N6CCOCC6)c5)ccc34)cc2Cl)c1` stands at 12

// inhibition of growth at 5 µM value for `N#Cc1cnc2ccc(-c3cccc(N4CCOCC4)c3)cc2c1Nc1ccc(OCc2cccc(F)c2)c(Cl)c1` : 49

// inhibition of growth at 5 µM value for `Fc1cccc(COc2ccc(Nc3nccc4ccc(-c5cccc(N6CCOCC6)c5)cc34)cc2Cl)c1` : 0.1

For this compound ( `N#Cc1cnc2ccc(-c3ccc(S(=O)(=O)N4CCOCC4)cc3)cc2c1Nc1ccc(OCc2cccc(F)c2)c(Cl)c1` ), measured inhibition of growth at 5 µM is 15

###

System: Leishmania major
Assay: Antiparasite activity against luciferase-expressing Leishmania major amastigotes isolated from infected in mouse RAW264.7 cells assessed as growth inhibition incubated for 96 hrs by luciferase reporter gene assay
Format: functional, organism-based
Details: RAW264.7, 96 h
Would you kindly list EC50 for each of these compounds?

Record `Fc1cccc(COc2ccc(Nc3cnnc4cc(-c5cccc(N6CCOCC6)c5)ccc34)cc2Cl)c1` . Reported EC50: > 15 µM

For this compound ( `O=S(=O)(c1ccc(-c2ccc3ccnc(Nc4ccc(OCc5ccccc5)c(Cl)c4)c3c2)cc1)N1CCOCC1` ), measured EC50 is > 15 µM

Looking up `O=S(=O)(c1ccc(-c2ccc3c(Nc4ccc(OCc5ccccc5)c(Cl)c4)nccc3c2)cc1)N1CCOCC1` , I found its EC50 recorded as > 3 µM

For `CN1CCN(S(=O)(=O)c2ccc(-c3ccc4c(Nc5ccc(OCc6cccc(F)c6)c(Cl)c5)nccc4c3)cc2)CC1` the compound record lists EC50 as > 15 µM

###

Would you kindly list CC50 at 48 h for each of these compounds?
Experiment: Toxicity against human HepG2 cells incubated for 48 hrs by MTT assay
Format: cell-based
Details: read-out: TC50

Field CC50 at 48 h (entry `CN1CCN(S(=O)(=O)c2ccc(-c3ccc4ncc(C#N)c(Nc5ccc(OCc6ccccc6)c(Cl)c5)c4c3)cc2)CC1` ) reads > 15 µM

The reported value for `CN1CCN(S(=O)(=O)c2ccc(-c3ccc4ncnc(Nc5ccc(OCc6cccc(F)c6)c(Cl)c5)c4c3)cc2)CC1` in terms of CC50 at 48 h is > 15 µM

Briefly, CC50 at 48 h measured for `CN1CCCN(S(=O)(=O)c2ccc(-c3ccc4c(Nc5ccc(OCc6cccc(F)c6)c(Cl)c5)nncc4c3)cc2)CC1` : 3.4 µM

Value of CC50 at 48 h reported for the compound `CN1CCCN(S(=O)(=O)c2ccc(-c3ccc4ncc(C#N)c(Nc5ccc(OCc6cccc(F)c6)c(Cl)c5)c4c3)cc2)CC1` is > 15 µM

Given item `CN1CCN(S(=O)(=O)c2ccc(-c3ccc4nccc(Nc5ccc(OCc6cccc(F)c6)c(Cl)c5)c4c3)cc2)CC1` , the value recorded as its CC50 at 48 h is 6.4 µM

So, `O=S(=O)(c1ccc(-c2ccc3nncc(Nc4ccc(OCc5ccccc5)c(Cl)c4)c3c2)cc1)N1CCOCC1` ? Its CC50 at 48 h was > 15 µM

Form: compound = `CN1CCCN(S(=O)(=O)c2ccc(-c3ccc4c(Nc5ccc(OCc6cccc(F)c6)c(Cl)c5)nccc4c3)cc2)CC1` ; CC50 at 48 h = > 15 µM

For this compound ( `CN1CCN(S(=O)(=O)c2ccc(-c3ccc4nncc(Nc5ccc(OCc6cccc(F)c6)c(Cl)c5)c4c3)cc2)CC1` ), measured CC50 at 48 h is > 15 µM

The compound `CN1CCCN(S(=O)(=O)c2ccc(-c3ccc4ccnc(Nc5ccc(OCc6cccc(F)c6)c(Cl)c5)c4c3)cc2)CC1` showed CC50 at 48 h equal to > 15 µM

###

Test system: Leishmania major
Experiment: Antiparasite activity against luciferase-expressing Leishmania major amastigotes isolated from infected in mouse RAW264.7 cells assessed as growth inhibition incubated for 96 hrs by luciferase reporter gene assay
Format: functional, organism-based
Conditions: RAW264.7, 96 h
For each entry below, report its EC50 value.

Recorded result, `O=S(=O)(c1ccc(-c2ccc3c(Nc4ccc(OCc5ccccc5)c(Cl)c4)ccnc3c2)cc1)N1CCOCC1` , EC50: > 1.5 µM

EC50 reading for `O=S(=O)(c1ccc(-c2ccc3ncnc(Nc4ccc(OCc5ccccc5)c(Cl)c4)c3c2)cc1)N1CCOCC1` : > 15 µM

Briefly, EC50 measured for `CN1CCN(S(=O)(=O)c2ccc(-c3ccc4ccnc(Nc5ccc(OCc6cccc(F)c6)c(Cl)c5)c4c3)cc2)CC1` : > 15 µM

###

I'd appreciate it if you could supply EC50 values for the items below.
Tested on: Leishmania major
Assay: Antiparasite activity against luciferase-expressing Leishmania major amastigotes isolated from infected in mouse RAW264.7 cells assessed as growth inhibition incubated for 96 hrs by luciferase reporter gene assay
Assay type: functional, organism-based
Details: RAW264.7, 96 h

The molecule listed as `CN1CCN(S(=O)(=O)c2ccc(-c3ccc4ncc(C#N)c(Nc5ccc(OCc6ccccc6)c(Cl)c5)c4c3)cc2)CC1` has a reported EC50 of > 15 µM

Noted for `Fc1cccc(COc2ccc(Nc3cnnc4ccc(-c5cccc(N6CCOCC6)c5)cc34)cc2Cl)c1` : its EC50 reads > 15 µM

Note to self: EC50 recorded for `O=S(=O)(c1ccc(-c2ccc3nncc(Nc4ccc(OCc5ccccc5)c(Cl)c4)c3c2)cc1)N1CCOCC1` was > 15 µM
